Parameter: GI50. Scope: all listed entries.
System: HCT-116
test.details: Antiproliferative activity against human HCT-116 cells assessed as inhibition of cell growth measured after 72 hrs by […]
Format: functional
Please reply with the bare figure in µM and do not write the unit itself.

Worked examples, 2 compounds total:
- input.smiles: "NC(=O)/C=C/c1ccncc1-c1ccc2ccccc2c1"
  tested.target: "HCT-116"
  GI50 (µM): 12.1
- input.smiles: "CNC(=O)/C=C/c1ccncc1-c1ccc2c(cnn2C)c1"
  tested.target: "HCT-116"
  GI50 (µM): 3.48

Which measured GI50 value corresponds to O=C(/C=C/c1ccncc1-c1ccc2ccccc2c1)NC1CC1 ?
6.18

====

System: MDA-MB-231
test.details: Antiproliferative activity against human MDA-MB-231 cells assessed as inhibition of cell growth measured after 72 hrs by SRB assay
Type: functional
measurement.kind: GI50

Worked examples, 5 compounds total:
- input.smiles: "O=C(/C=C/c1ccncc1-c1ccc2ccccc2c1)NC1CC1"
  GI50: "8.42 µM"
- input.smiles: "O=C(O)/C=C/c1ccncc1-c1ccc2cc[nH]c2c1"
  GI50: "> 10 µM"
- input.smiles: "COC1CN(C(=O)/C=C/c2ccncc2-c2ccc3ccccc3c2)C1"
  GI50: "> 10 µM"
- input.smiles: "O=C(O)/C=C/c1ccncc1-c1ccc2ccccc2c1"
  GI50: "> 10 µM"
- input.smiles: "CNC(=O)/C=C/c1ccncc1-c1ccc2ccccc2c1"
  GI50: "8.68 µM"

Which measured GI50 value corresponds to CNC(=O)/C=C/c1ccncc1-c1ccc2c(cnn2C)c1 ?
> 10 µM

Which measured GI50 value corresponds to O=C(/C=C/c1ccncc1-c1ccc2cc[nH]c2c1)N1CCOCC1 ?
> 10 µM

Which measured GI50 value corresponds to COC(=O)/C=C/c1ccncc1-c1ccc2ccccc2c1 ?
4.71 µM

Which measured GI50 value corresponds to O=C(CCc1ccncc1-c1ccc2ccccc2c1)N1CCOCC1 ?
> 10 µM

Which measured GI50 value corresponds to CNC(=O)CCc1ccncc1-c1ccc2ccccc2c1 ?
8.98 µM

Which measured GI50 value corresponds to O=C(O)CCc1ccncc1-c1ccc2ccccc2c1 ?
> 10 µM

Which measured GI50 value corresponds to CCOC(=O)/C=C/c1ccncc1-c1ccc2c(cnn2C)c1 ?
> 10 µM

====

Test system: MCF7
test.details: Antiproliferative activity against human MCF7 cells assessed as inhibition of cell growth measured after 72 hrs by SRB assay
Type: functional
Parameter: GI50. Scope: all listed entries.
Please reply with the bare figure in µM and do not write the unit itself.

Worked examples, 6 compounds total:
- input.smiles: "COC(=O)/C=C/c1ccncc1-c1ccc2ccccc2c1"
  GI50, µM: 8.17
- input.smiles: "CCOC(=O)/C=C/c1ccncc1-c1ccc2c(cnn2C)c1"
  GI50, µM: 7.32
- input.smiles: "O=C(/C=C/c1ccncc1-c1ccc2ccccc2c1)NC1CC1"
  GI50, µM: 6.84
- input.smiles: "CCOC(=O)/C=C/c1ccncc1-c1ccc2cc[nH]c2c1"
  GI50, µM: 6.88
- input.smiles: "CN(C)C(=O)/C=C/c1ccncc1-c1ccc2ccccc2c1"
  GI50, µM: 8.19
- input.smiles: "CNC(=O)c1cc(Oc2ccc(NC(=O)Nc3ccc(Cl)c(C(F)(F)F)c3)cc2)ccn1"
  GI50, µM: 4.98

We next turn to a different compound, shown below.
Which measured GI50 value corresponds to CNC(=O)/C=C/c1ccncc1-c1ccc2cc[nH]c2c1 ?
9.23
